Data provenance is the nanobody polyreactivity screen of Harvey et al. (2022).

assay: yeast display, Sf9 membrane polyspecificity reagent, FACS + sequencing; frameworks hold sequencing errors
property: polyreactivity (PSR sort gate)

Here are 4 sequences together with their reported answers.
# residue-sequence, test-value
rows = [
    ("QVQLVESGGGLVQAGGSLRLSCAASGITFVDYAMGWYRQAPGKEWELVAAITTGGSTNYADSVKGRFTISRDNAKNTVYLQMNRLKPEDTAVYYCNKRPVILYDYWGQGTQVTVSS", "low polyreactivity"),
    ("QVQLVESGGGLVQAGGSLRLSCAASGIISRYYAMGWYRQAPGKERELVASISSGVGTNYADSVKGRFTISRDNAKNTVYLQMNSLKPEDTAVYYCAARFRYYRHYYWGQGSQVTVSS", "high polyreactivity"),
    ("QVQLVESGGGLVQAGGSLRLSCAASGFIFGGNTMGWSRQAPGKERELVASITLSGGRTHYADSVKGRFTISRDNAKNTVYLQMNSLKPEDTAVYYCARSLASYLHAGDTEYNGSYWGQGTQVTVSS", "low polyreactivity"),
    ("QVQLVESGGGLVQAGGSLRLSCPASGLTFAYYTMGWYRQSPGKERELVADISRSGGSTYYADSVKGRFTISRDNAKNTVYLQMNSLKPEDSAVYYCAARANVYTKKRDYWGQGTQVTVSW", "high polyreactivity"),
]

Next up:
Record QVQLVESGGGLVQAGGSLRLSCAASGGTFNRYAMGWYRQAPGKERELVAAISWSGGSTYYADSVKGRFTISRDTAKNTVYLQMNSLKPEDTAVYYCNARNWYYEGDYWGQGTQVTVSS , field polyreactivity (PSR sort gate): high polyreactivity

====

experiment: yeast display, Sf9 membrane polyspecificity reagent, FACS + sequencing; frameworks hold sequencing errors
property: polyreactivity (PSR sort gate)

# residue-sequence, polyreactivity (PSR sort gate)
rows = [
    ("QVQLVESGGGLVQAGGSLRLSCAASGRIFPSYAMGWYRQAPGKERELVAAISSSGGRTYYADSVKGRFTISRDNAKNTVYLQRNSLKPEDSAVYYCAARWVQYGVRYDYWGHGTQVTVSS", "high polyreactivity"),
    ("QVQLQESGCGLVQAGGSLRLTCAASGSISYPRTMGWSRQAPGKEREFVAGIGVGGTTYYADSVIGRFTISRDNAKNTVYLQMNSLKPEDTAVYYCAVYSGDDYYHDYWGQGTQVTVSS", "low polyreactivity"),
    ("QVQLVESGGGLVQAGGSLRLSCAASGRTSLLYAMGWYRQAPGKERELVATISIGGSTYYADSVKGRFTISRDNAKKTVYLQMKSRKPEDTAVYYCAADVWWFFQPSTLGDFEYWGQGTQVTVSS", "low polyreactivity"),
    ("QVQLVESVRGLVQAGGSLPLSCAASGIIISSYAIGWYRQAPGKESEMVADIRSGGSTNYADSVKGRFTISRDNAKNNVYLQMNSLKPEDTAVYYCIADTFQWWDIADVYVIVKYGYWGQGTQVTVSS", "low polyreactivity"),
    ("QVQLVESGGGLVQAGGSLRLSCAASGITSGNNALGWYRQAPGKERELVAALSWTGGSTYYADSVKGRFTISRDNAKNTVYLQMNSLKPEDTAVYYCAAKGLRYRDIDYDYWGQGTQVTVSS", "low polyreactivity"),
    ("QVQLQESGGGLVQAGGSLRLSCASSGSIFWVWRMGWYCQAPGKEREFVAGIGLGATTNYADSVKGRFTISRDNAKNTVYLQMNSLKPGDTAVYYCATVGYYKGNQVLPAKDGDSWGQGTQVTVSS", "high polyreactivity"),
    ("QDQLVESGGGLVQAGGSLRLSCAASGSMLVNNAMGCYRQAPGKERELVAASSKSTGRTYYADSVKGRFTISRDNAKNTVYLQMNSLKPVDTAVFYCYALTHPDKFVYWGQGTQVTVSS", "high polyreactivity"),
    ("QVQLQESGGDLEQAGGSLRLSCTASGTNSDVRVMGWYRQAPGKERELVATISYVTITYYADSVKGRLTISRDSEKHRVSADDEPETGRYRGVLLRYYWGLGTQVTVSS", "low polyreactivity"),
]

Please fill in: polyreactivity (PSR sort gate) reported for QVQLVESGGGLVQAGGSLRLSCAASGFILEDYTMGWYRQAPGKERELVAAISSGGTRTYYADSVKGRFTISRDNAKNTVYLQMNSLKPEDTAVYYCTTRRGERGYWGQGTQVTVSS = high polyreactivity

Lab book: polyreactivity (PSR sort gate) of QVQLVESGGGLVQAGGSIRLSCAASGSISAEKSMGRDRQAPGKERELVAAITSGGSTDYADSVKGRFTISRDNAKNNVYLQMNSLKPVDTAVSYCAASGRVGPGYWYDYWGQGTQVTVSS noted as low polyreactivity

Measured polyreactivity (PSR sort gate), QDQLVESGGGLFQAGGSLRLSCAASGGIFGFYAMGWSRKAPGKERELVAAISWGGGSTYYADSVKGRFTISRDNAKNTVYLQMNSLKPEDTAFYYCAADPALTIEYGYWGQVTQVTVSS : low polyreactivity

====

assay: yeast display, Sf9 membrane polyspecificity reagent, FACS + sequencing; frameworks hold sequencing errors

# residue-sequence, polyreactivity (PSR sort gate)
measured = [
    ("QVQLVESGGGLVQAGGSLRLSCAASGYTFGYNAMGWYRQAPGKERELVATISSGGTTTYADSVKGRFTISRDNAKNTVYLQMNSLKPEDTAVYYCNVYDYPTYDYWGQGTQVTVSS", "low polyreactivity"),
    ("QVQLVESGGGLVQAGGSLRLSCAASGSTFANYVMGWYRQAPGKEREVVAAISWTGGSTYYADSVKGRFTISRDNAKNTVYLQMHSLKPEDTAVYYCNAASYAWLWHPKSGLYDYWGQGTQVTVSS", "low polyreactivity"),
]

====

assay: yeast display, Sf9 membrane polyspecificity reagent, FACS + sequencing; frameworks hold sequencing errors
property: polyreactivity (PSR sort gate)

Below, 4 sequences whose answers are already recorded.
# residue-sequence, polyreactivity (PSR sort gate)
rows = [
    ("QVQLVESGGGLVQAGGILLLSCAASRRIFGVYAMGWYIQAPGKERELVATIRSSGTRKNYADSLKGRFTISRDNAKNTVYLQLNSLKPEDTAVYYCAAGGRPYKLDFTRSDYWGHGTQVTVSS", "low polyreactivity"),
    ("QVQLVESGGGLVQAGGRLRLSCAASGSIFSRNAMGWDRQAPGQERELVAAITRSGGRTYYADSVKGRCTLSRDNAKTTVYLQMNSLKPEDTAVYYCNALASQEYDYWGQGTQVTVSS", "high polyreactivity"),
    ("QVRLVESGGGLVQAGGRLRLSCAASGRIFSSYSMGWYRQAPGKERELVASISWSGVRTRYADSVKGRFTISRDNAKNTVYLQLNSLKPEDTAVYYCAAVVPYYYRSPSNHMGYWGQGTQVTVSS", "high polyreactivity"),
    ("QVQLQESGGGLVQAGGSPRLSCAASDNIFPDSVMCWYRQAPGKERELVATIGFGATTNSADSVKGRFTISRDNAKNTVYLQMNSLKPEDTAVYSCAADPLNYEYFCYWGQGTQVTVSS", "low polyreactivity"),
]

Below: the item to evaluate.
// polyreactivity (PSR sort gate) lookup, sequence = QVQLVESGGGLVQAGGSLRLSCAASGSTFDTYTRGWYRQAPGKERELVAAITTSGGSTYYADSVKGRFTISRDNAKNTVYLQMNSLKPEDTAVYYCAADFFPGGYPEMDYWGQGTQVTVSS , result: high polyreactivity

====

assay: yeast display, Sf9 membrane polyspecificity reagent, FACS + sequencing; frameworks hold sequencing errors

# residue-sequence, polyreactivity (PSR sort gate)
rows = [
    ("QVQLVESGGGLVQAGGSLRLSCAASGRTLYANTMGWYRPAPGKERELVATIPRDGSTNYADSVKGRFTISRDTAKNTVYLQMNSLKPEDTAVYYCNADLWVNLDNDDDYWGQGTQVTVSS", "low polyreactivity"),
    ("QVQLVESGGGLVQAGGSLRLSCAASGRIFPAYAMGWYRQPPGKERELVASIRRGGITYADSVKGRFTISRDNAKNTVYLQMNSLKPEDTAVYYCARPQWRDWYGYWGQGTQVTVSS", "low polyreactivity"),
]

====

assay: yeast display, Sf9 membrane polyspecificity reagent, FACS + sequencing; frameworks hold sequencing errors
property: polyreactivity (PSR sort gate)

Worked examples, 4 sequences total:
# residue-sequence, test-value
rows = [
    ("QVQLVESGGGLVQAGGSLRLSCAASGLTLYKNGMGWYRQAPGKERELVAVISRSGGRTYYAESVKGRFTISRDNAKNTVYLQMNSLKPEDTSVYYCAKRYGYTEYYYWGQGTQVTVSS", "high polyreactivity"),
    ("QVQLVESGGGLVQAGGSLRLSCAASGSTFRSYAMGWYRPAPGTERELVAAISYSGDSTYYADSVTGRFTISRDIAKNTVFLQMKRLKPVDTAVYYCAALRDWDIQGEPWKRYGYWGQGTQVTVSS", "low polyreactivity"),
    ("QVQLVESGGGLVQAGGSLRLSCAASGFIFRNYAMGWNTQAPGKERELVAAISRSVGRTYYADSVKGRFTISRDNAKNTVYLQMNSLKPEDPAVYYCAVHIYGIGFYFTYLYVNGYDYWGQGTQVTVSS", "high polyreactivity"),
    ("QVQLVESGGGLVQAGGSLRLSCAASGSIFKEYAMGWYRQAPGKERELVATISWSGGSTYYADSVKGRFTISRDNAKNTVYLQMNSLKPEDTAVYYCNKRTPWWYVVRYDYWGQGTQVTVSS", "high polyreactivity"),
]

Value of polyreactivity (PSR sort gate) reported for the sequence QVQLVESGGGLVQAGGSLRLSCAASGRIFIDYAMGWSRQAHGKERELVAAIDSGGNSNYADSVKGRFTISRDNAKNSVYLQKNSLKPEDTAVYYCNASGVTTDIAGVYWGQGTQVSVSS is low polyreactivity

// field: polyreactivity (PSR sort gate); key: QVQLVESGGGLVQAGGSLRLSCAASGRTFSTNAMGWYSQAPGKERELVAAISARGGSTYYADSVKGRFTISRDNAKNTVYLLLTSLKPEDTAVDYCARRPGRYSYAFDYWGQGTQVTVSS ; value = high polyreactivity

Measured polyreactivity (PSR sort gate), QVQLVESGGGLVQAGGSLRLSCAASGSNFRVYAMGWDRQAPGKERELVAAISSSGGITYYADSVKGRFTISRDNAKNTVYLQMNSLKPEDTAVYYCAKGTVIHVLYDYWGQGTQVTVSS : low polyreactivity
